- assay protocol: clinical
- protocol conditions: human, plasma, 75 mg, Plasma aliskiren on treatment (trough), Ren CC homozygotes; Aliskiren 75 mg; after four weeks; median (interquartile range)
measurement type: concentration at 4 weeks
Param answer (str): number followed by unit.

(Q) Let me know recorded concentration at 4 weeks for "COCCCOc1cc(C[C@@H](C[C@H](N)[C@@H](O)C[C@H](C(=O)NCC(C)(C)C(N)=O)C(C)C)C(C)C)ccc1OC" , thanks.
(A) 4.4 ng/mL

---

- assay protocol: clinical
- protocol conditions: human, plasma, 37.5 mg, Plasma aliskiren on treatment (trough), Ren T allele carriers; Aliskiren 37.5 mg; after four weeks; median (interquartile range)
measurement type: concentration at 4 weeks (ng/mL)
# output: bare number, implied unit ng/mL

(Q) Let me know recorded concentration at 4 weeks for "COCCCOc1cc(C[C@@H](C[C@H](N)[C@@H](O)C[C@H](C(=O)NCC(C)(C)C(N)=O)C(C)C)C(C)C)ccc1OC" , thanks.
(A) 2.4

---

- assay protocol: clinical
- protocol conditions: human, plasma, 37.5 mg, Plasma aliskiren on treatment (trough), Ren CC homozygotes; Aliskiren 37.5 mg; after four weeks; median (interquartile range)
measurement type: concentration at 4 weeks
Param answer (str): number followed by unit.

(Q) Let me know recorded concentration at 4 weeks for COCCCOc1cc(C[C@@H](C[C@H](N)[C@@H](O)C[C@H](C(=O)NCC(C)(C)C(N)=O)C(C)C)C(C)C)ccc1OC [Aliskiren] , thanks.
(A) 3.1 ng/mL

---

- assay protocol: clinical
- protocol conditions: human, plasma, 300 mg, Plasma aliskiren on treatment (trough), Ren T allele carriers; Aliskiren 300 mg; after four weeks; median (interquartile range)
measurement type: concentration at 4 weeks (ng/mL)
# output: bare number, implied unit ng/mL

(Q) Let me know recorded concentration at 4 weeks for COCCCOc1cc(C[C@@H](C[C@H](N)[C@@H](O)C[C@H](C(=O)NCC(C)(C)C(N)=O)C(C)C)C(C)C)ccc1OC [Aliskiren] , thanks.
(A) 20.5

---

- assay protocol: clinical
- protocol conditions: human, plasma, 150 mg, Plasma aliskiren on treatment (trough), Ren T allele carriers; Aliskiren 150 mg; after four weeks; median (interquartile range)
measurement type: concentration at 4 weeks (ng/mL)
# output: bare number, implied unit ng/mL

(Q) Let me know recorded concentration at 4 weeks for "COCCCOc1cc(C[C@@H](C[C@H](N)[C@@H](O)C[C@H](C(=O)NCC(C)(C)C(N)=O)C(C)C)C(C)C)ccc1OC" , thanks.
(A) 7.1

---

- assay protocol: clinical
- protocol conditions: human, plasma, 300 mg, Plasma aliskiren on treatment (trough), Ren CC homozygotes; Aliskiren 300 mg; after four weeks; median (interquartile range)
measurement type: concentration at 4 weeks

(Q) Let me know recorded concentration at 4 weeks for COCCCOc1cc(C[C@@H](C[C@H](N)[C@@H](O)C[C@H](C(=O)NCC(C)(C)C(N)=O)C(C)C)C(C)C)ccc1OC [Aliskiren] , thanks.
(A) 31.9 ng/mL

---

- assay protocol: clinical
- protocol conditions: human, plasma, 75 mg, Plasma aliskiren on treatment (trough), Ren T allele carriers; Aliskiren 75 mg; after four weeks; median (interquartile range)
measurement type: concentration at 4 weeks

(Q) Let me know recorded concentration at 4 weeks for "COCCCOc1cc(C[C@@H](C[C@H](N)[C@@H](O)C[C@H](C(=O)NCC(C)(C)C(N)=O)C(C)C)C(C)C)ccc1OC" , thanks.
(A) 3.9 ng/mL
